Where do the numbers come from? From patent US10981875B2.

# TEST_SYSTEM: human topoisomerase I (Homo sapiens)
# Sequence (P11387 1-765): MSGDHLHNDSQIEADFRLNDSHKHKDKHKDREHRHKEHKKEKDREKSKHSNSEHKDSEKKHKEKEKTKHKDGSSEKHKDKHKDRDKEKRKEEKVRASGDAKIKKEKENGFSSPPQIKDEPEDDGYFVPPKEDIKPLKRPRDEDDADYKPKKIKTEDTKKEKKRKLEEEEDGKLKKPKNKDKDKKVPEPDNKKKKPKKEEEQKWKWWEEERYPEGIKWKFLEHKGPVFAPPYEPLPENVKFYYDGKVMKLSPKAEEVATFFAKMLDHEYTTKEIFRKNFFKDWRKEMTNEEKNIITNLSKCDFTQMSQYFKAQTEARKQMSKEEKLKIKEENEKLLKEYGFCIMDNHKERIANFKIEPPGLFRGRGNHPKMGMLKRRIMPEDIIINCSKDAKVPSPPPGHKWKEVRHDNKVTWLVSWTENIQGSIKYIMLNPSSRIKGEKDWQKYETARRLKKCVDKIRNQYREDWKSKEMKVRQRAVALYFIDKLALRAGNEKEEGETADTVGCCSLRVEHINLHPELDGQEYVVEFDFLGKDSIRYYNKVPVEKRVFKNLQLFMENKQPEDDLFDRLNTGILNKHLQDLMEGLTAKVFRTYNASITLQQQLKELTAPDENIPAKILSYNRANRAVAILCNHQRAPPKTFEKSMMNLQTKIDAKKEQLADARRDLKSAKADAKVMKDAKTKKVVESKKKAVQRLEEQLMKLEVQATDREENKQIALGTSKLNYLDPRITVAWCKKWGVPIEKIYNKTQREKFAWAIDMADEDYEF
# ASSAY_TEXT: Topoisomerase I relaxation assay (human)
# Assay type: biochemical
# TEST_PARAMETERS: read-out: IC50 human topoisomerase I in the relaxation assay
Recorded IC50, one value per entry.

>>> print(df.to_string())
                           molecular_string  endpoint_label  assay_value
0  COc1c(N2CC[C@@H](CN)C2)c(F)cc2c(=O)c(C(=O)O)cn(Cc3ccc(-c4ccccc4)cc3)c12            IC50      26.5 µM

Test item COc1c(N2CC[C@@H](CN)C2)c(F)cc2c(=O)c(C(=O)O)cn(Cc3ccc4ccccc4c3)c12 ; human topoisomerase I (Homo sapiens); reported IC50 was 43.1 µM

* * *

# TEST_SYSTEM: E. coli DNA gyrase (Escherichia coli, UniProt P0AES4+P0AES6)
# Sequence (P0AES4 whole entry, one chain of several): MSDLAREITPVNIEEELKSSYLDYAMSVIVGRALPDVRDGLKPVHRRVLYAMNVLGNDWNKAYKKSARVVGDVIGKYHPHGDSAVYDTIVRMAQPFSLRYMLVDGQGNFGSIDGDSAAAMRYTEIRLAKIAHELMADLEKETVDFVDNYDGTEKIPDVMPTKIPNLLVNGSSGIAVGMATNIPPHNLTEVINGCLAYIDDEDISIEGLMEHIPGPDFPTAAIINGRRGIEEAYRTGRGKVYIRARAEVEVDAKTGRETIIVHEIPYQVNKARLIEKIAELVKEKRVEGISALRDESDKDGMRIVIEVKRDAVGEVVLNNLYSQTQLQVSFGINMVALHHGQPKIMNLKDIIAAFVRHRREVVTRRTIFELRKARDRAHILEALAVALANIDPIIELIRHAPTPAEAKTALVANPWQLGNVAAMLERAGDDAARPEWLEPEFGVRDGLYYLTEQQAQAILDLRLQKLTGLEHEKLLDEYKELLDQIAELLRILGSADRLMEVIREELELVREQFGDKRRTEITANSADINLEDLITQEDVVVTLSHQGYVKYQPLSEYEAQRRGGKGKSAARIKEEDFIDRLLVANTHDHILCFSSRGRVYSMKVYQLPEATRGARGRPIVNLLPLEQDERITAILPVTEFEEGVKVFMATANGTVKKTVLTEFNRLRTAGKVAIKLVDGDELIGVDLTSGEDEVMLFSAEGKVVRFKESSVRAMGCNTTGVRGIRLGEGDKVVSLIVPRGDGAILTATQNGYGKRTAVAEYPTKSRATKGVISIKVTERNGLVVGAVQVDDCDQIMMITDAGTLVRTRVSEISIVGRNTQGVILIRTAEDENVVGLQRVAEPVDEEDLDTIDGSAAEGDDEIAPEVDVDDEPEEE
# ASSAY_TEXT: DNA gyrase supercoiling assay
# Format: biochemical
# TEST_PARAMETERS: Table 1
ENDPOINT_LABEL: IC50 (mM)
Numeric answer only, unit mM assumed.

Test item COc1c(N2CC[C@@H](CN)C2)c(F)cc2c(=O)c(C(=O)O)cn(Cc3ccc(-c4ccccc4)cc3)c12 [Compound 217] ; E. coli DNA gyrase (Escherichia coli, UniProt P0AES4+P0AES6); reported IC50 was 1.37

* * *

# TEST_SYSTEM: human topoisomerase I (Homo sapiens, UniProt P11387)
# ASSAY_TEXT: Topoisomerase I relaxation assay (human)
# Assay type: biochemical
# TEST_PARAMETERS: Table 2; relaxation assay; read-out: Topo I IC50
Recorded IC50, one value per entry.

Worked set:
                                   molecule                               test_system  endpoint_label  assay_value
0  NC[C@@H]1CCN(c2cc3c(cc2F)c(=O)n(N)c(=O)n3Cc2ccc(-c3ccccc3)cc2)C1 [Compound 215a]  human topoisomerase I (Homo sapiens, UniProt P11387)            IC50      25.9 µM
1  NC[C@@H]1CCN(c2cc3c(cc2F)c(=O)n(N)c(=O)n3Cc2ccc3ccccc3c2)C1 [Compound 213a]  human topoisomerase I (Homo sapiens, UniProt P11387)            IC50        59 µM
2  COc1c(N2CCNCC2)c(F)cc2c(=O)c(C(=O)O)cn(Cc3ccc(-c4ccccc4)cc3)c12  human topoisomerase I (Homo sapiens, UniProt P11387)            IC50      54.2 µM
3  COc1c(N2C[C@@H]3CCCN[C@@H]3C2)c(F)cc2c(=O)c(C(=O)O)cn(Cc3ccc(-c4ccccc4)cc3)c12  human topoisomerase I (Homo sapiens, UniProt P11387)            IC50      44.4 µM
4  COc1c(N2CCNCC2)c(F)cc2c(=O)c(C(=O)O)cn(Cc3ccc4ccccc4c3)c12  human topoisomerase I (Homo sapiens, UniProt P11387)            IC50       132 µM

Record COc1c(N2C[C@@H]3CCCN[C@@H]3C2)c(F)cc2c(=O)c(C(=O)O)cn(Cc3ccc4ccccc4c3)c12 . Reported IC50: 128 µM
